Assay: Fluorescence excitation and emission spectra in solvents of different polarity
Type: physicochemical
Conditions: 10 μM, approximate values
Protocol: To validate the solvatochromic properties of the probes, we recorded the fluorescence excitation and emission spectra of probes 1-6 in a 10 μM solution in CH2Cl2, CH3CN, CH3OH, and PBS buffer (pH 7.4, Table 1, Supplementary Table 1). […] This effect was less prominent for 3 and 4 with a ~ 110-fold fluorescence increase, and for 5 and 6 with a ~ 30-fold fluorescence increase. […]
# fluorescence increase in CH2Cl2 compared to PBS buffer (pH 7.4) listing for each entry below

Some compounds with known fluorescence increase in CH2Cl2 compared to PBS buffer (pH 7.4) results, for comparison:
Compound	Result
CN(C)c1ccc2c3c(cccc13)C(=O)N(CCOCCn1c(=S)[nH]c(=O)c3[nH]cnc31)C2=O [Probe 2]	~ 300 fold
O=c1[nH]c(=S)n(CCOCCNc2ccc([N+](=O)[O-])c3nonc23)c2nc[nH]c12 [Probe 6]	~ 30 fold

query: What value of fluorescence increase in CH2Cl2 compared to PBS buffer (pH 7.4) has been reported for the following compound? CN(C)S(=O)(=O)c1ccc(NCCOCCn2c(=S)[nH]c(=O)c3[nH]cnc32)c2nonc12 [Probe 4]
result: ~ 110 fold

query: Try the compound O=c1[nH]c(=S)n(CCNc2ccc([N+](=O)[O-])c3nonc23)c2nc[nH]c12 [Probe 5]
result: ~ 30 fold

query: Try the compound CN(C)S(=O)(=O)c1ccc(NCCn2c(=S)[nH]c(=O)c3[nH]cnc32)c2nonc12 [Probe 3]
result: ~ 110 fold

query: Try the compound CN(C)c1ccc2c3c(cccc13)C(=O)N(CCn1c(=S)[nH]c(=O)c3[nH]cnc31)C2=O [Probe 1]
result: ~ 300 fold

====

# S/B (signal-to-background ratio) listing for each entry below
test system: MPO activity in human polymorphonuclear neutrophils (hPMN); assay: Wash-free live-cell imaging of probes in hPMN during NETosis; format: cell-based; details: 100 nM PMA, probe near IC50, 3 h, 37 °C
Reply with the value as a number alone.

Some compounds with known S/B (signal-to-background ratio) results, for comparison:
Smiles string	Measured number
CN(C)S(=O)(=O)c1ccc(NCCOCCn2c(=S)[nH]c(=O)c3[nH]cnc32)c2nonc12	7.3
CN(C)c1ccc2c3c(cccc13)C(=O)N(CCOCCn1c(=S)[nH]c(=O)c3[nH]cnc31)C2=O	11.7
CN(C)S(=O)(=O)c1ccc(NCCn2c(=S)[nH]c(=O)c3[nH]cnc32)c2nonc12	8.9

// next item, S/B (signal-to-background ratio) requested
query: What value of S/B (signal-to-background ratio) has been reported for the following compound? CN(C)c1ccc2c3c(cccc13)C(=O)N(CCn1c(=S)[nH]c(=O)c3[nH]cnc31)C2=O
result: 16.7

====

experiment: Fluorescence excitation and emission spectra in solvents of different polarity; assay type: physicochemical; details: CH2Cl2, 10 μM
Quantity measured: λem (nm)
Kindly provide the numeric value in nm only, without the unit symbol.

Some compounds with known λem results, for comparison:
Compound	Quantity measured	Measured number
CN(C)S(=O)(=O)c1ccc(NCCOCCn2c(=S)[nH]c(=O)c3[nH]cnc32)c2nonc12 [Probe 4]	λem	535
CN(C)c1ccc2c3c(cccc13)C(=O)N(CCn1c(=S)[nH]c(=O)c3[nH]cnc31)C2=O [Probe 1]	λem	510
CN(C)c1ccc2c3c(cccc13)C(=O)N(CCOCCn1c(=S)[nH]c(=O)c3[nH]cnc31)C2=O [Probe 2]	λem	512
CN(C)S(=O)(=O)c1ccc(NCCn2c(=S)[nH]c(=O)c3[nH]cnc32)c2nonc12 [Probe 3]	λem	532
O=c1[nH]c(=S)n(CCNc2ccc([N+](=O)[O-])c3nonc23)c2nc[nH]c12 [Probe 5]	λem	522

// next item, λem requested
query: What value of λem has been reported for the following compound? O=c1[nH]c(=S)n(CCOCCNc2ccc([N+](=O)[O-])c3nonc23)c2nc[nH]c12 [Probe 6]
result: 517
